I'd be grateful if you could share measured TGI for these entries.
System: IGROV1 ovarian
Assay: NCI tumour cell line growth inhibition, 48 h

> print(dat)
        compound    result
1  CN1CCCC1=NC#N  > 100 µM

# return TGI for each item in the list
1. CC(=O)OC1C/C(C)=C/CCC(C)/C=C/C2(C)CCC(C(C)(C)O)C12 (stereo not drawn)
2. COc1cc(S(=O)(=O)Nc2nc(-c3ccc(N)cc3)cs2)ccc1Cl

1: > 100 µM; 2: > 100 µM

* * *

Provide the recorded GI50 for the entries that follow.
System: HCT-116 colon
Assay: NCI tumour cell line growth inhibition, 48 h

In the examples that follow, each entry is paired with its recorded GI50.
> print(dat)
                                   molecule   result
1  O=C(Nc1ccccc1)NS(=O)(=O)c1ccc(N2N=C3c4ccccc4CC3C2c2ccccn2)cc1 (stereo not drawn)  15.3 µM
2  COc1ccc(-c2cc(-c3cn[nH]c3-c3ccccn3)ccn2)cc1  > 25 µM

Quick one: GI50 of COc1ccc2c(c1)sc1nc(-c3ccccc3)c(-c3ccc(O)c(OC)c3)n12 ? 4.95 µM

* * *

Tested on: EKVX NSCLC
Assay: NCI tumour cell line growth inhibition, 48 h
I'd be grateful if you could share measured TGI for these entries.

> print(dat)
                                   compound    result
1  CCN(CC)CCn1c2cc3c(cc2c(=O)c2cccnc21)OCO3   > 10 µM
2  Cc1cc(S(=O)(=O)NC2=NC(c3ccccc3)c3ccccc3N2)c(S)cc1Cl (stereo not given)  > 100 µM
3  Cc1cc(=O)oc2c1cc(OCC(=O)OCCN1CCCCC1)c1occ(C)c12  > 100 µM
4           Nc1nc(N)c(N=O)c(Nc2ccc(I)cc2)n1  > 100 µM
5  CCOC(=O)Cn1c(C)c(/C=N/NC(=O)c2cc3c(ccc4ccccc43)o2)c2ccccc21   42.5 µM

Items follow; give TGI for each.
1. Cc1ccc(S(=O)(=O)SCc2ccccc2CSS(=O)(=O)c2ccc(C)cc2)cc1
2. O=C1CSC(c2ccc(Cl)cc2)N1c1ccc(-c2ccc(-n3c(-c4ccccc4)nc4ccccc4c3=O)cc2)cc1 (stereo not given)
3. O=c1cc(O)c2ccccc2o1
4. CCO/C=N/C1=C(C#N)C(c2ccc(Cl)cc2)c2c(-c3ccccc3)nn(-c3ccccc3)c2O1 (stereo not given)
5. N#CSCc1c(Cl)cccc1Cl

1: > 100 µM; 2: > 100 µM; 3: > 100 µM; 4: > 31.6 µM; 5: > 27.4 µM

* * *

Test system: NCI-H460 lung
Assay: NCI tumour cell line growth inhibition, 48 h
So I've got a bunch of molecules here, and I need their TGI values.

Recorded TGI, per entry:
> print(dat)
                                   molecule  measured.endpoint    result
1  COc1ccc(C2CC(c3ccc4ccccc4c3O)=NN2C(C)=O)cc1OC (stereo unspecified)                TGI  > 100 µM
2      c1ccc2sc(SCN(C3CCCCC3)C3CCCCC3)nc2c1                TGI  > 100 µM
3  COc1c(NC(=O)CC(C)=O)[c]([Hg][O]C(C)=O)c(OC)c(Cl)[c]1[Hg][O]C(C)=O                TGI   49.9 µM

Would you mind giving TGI for every molecule in the list below?
1. COc1ccc(-c2cc(-c3cn[nH]c3-c3ccccn3)ccn2)cc1
2. O=P(O)(O)C1CCCC(P(=O)(O)O)N1 (stereo unspecified)
3. COc1cc2ccnc3c2c(c1OC)-c1ccc(=O)ccc1-3
4. CCCCCCCCCC1C(C)c2c([nH]c3ccccc23)C2C(=O)N(c3ccccc3)C(=O)C21 (stereo unspecified)

> 25 µM
> 100 µM
> 100 µM
13.7 µM

I need TGI for every entry listed below, if you could help.
1. CC(CO)(CO)Nc1ncnc2ccccc12
2. O=C1c2ccccc2-c2n[nH]c3cccc1c23

> 100 µM
> 100 µM

Batch of 4 molecules: report TGI for each.
1. Cc1ccccc1-c1c(N)nc(N)nc1C(=O)Nc1nccs1
2. Nc1ccc(Nc2c3ccccc3nc3ccccc23)cc1
3. COc1cc2c(c(OC)c1OC)-c1ccc(SC)c(=O)cc1[C@@H](NCc1cccc(C#N)c1)CC2
4. COC(=O)n1c(=O)n(-c2ccccc2)c(=O)n1C(=O)Nc1ccccc1

1: > 100 µM; 2: 8.07 µM; 3: 8.97 µM; 4: > 100 µM

Hey, can you go through the list below and give me TGI for every item?
1. CN(C)C(=O)c1cc2cnc(Nc3ccc(-c4csc5c(=O)cc(N6CCNCC6)oc45)cc3)nc2n1C1CCCC1
2. CC1=CC2=C(C(N)=O)C(=O)OC2(C)C(c2ccccc2)C1 (stereo unspecified)
3. CC#Cc1cc2c(cc1O)CC[C@@H]1[C@@H]2CC[C@]2(C)[C@@H](O)CC[C@@H]12

["2.35 µM", "> 100 µM", "20.2 µM"]

* * *

Tested on: HT29 colon
Experiment: NCI tumour cell line growth inhibition, 48 h
measured-endpoint: TGI (µM)
Answers are plain numbers, in µM.

# count of solved cases: 2
> print(dat)
                                   compound  measured.endpoint  measured.number
1  c1ccc(-c2nnc(Nc3ccc4c(c3)OCCO4)o2)c(NCc2ccncc2)c1                TGI             1.75
2  CN1C(=O)c2c(c3c4ccccc4n(C4OC(CO)C(O)C(O)C4O)c3c3[nH]c4ccccc4c23)C1=O (stereo unspecified)                TGI             9.52

For the next question, use this compound.
Param readout = TGI; param system = HT29 colon; param query = COc1cc2ccnc(-c3c4ccccc4c(N)c4c(OC)c(OC)ccc34)c2cc1OC ; response: value 11.7

* * *

System: SK-MEL-2 melanoma
Test: NCI tumour cell line growth inhibition, 48 h; in the data active = GI50 below about 0.43 µM; inactive = the rest
Result category, one only: active, inactive

What was the test verdict on C=CC(=O)N1CCC([C@@H]2CCNc3c(C(N)=O)c(-c4ccc(Oc5ccccc5)cc4)nn32)CC1 ? inactive

// outcome(item) with item = C[C@H]1[C@H](C)CC[C@]2(C(=O)O)CC[C@]3(C)C(=CC[C@@H]4[C@@]5(C)CC[C@H](OC(=O)/C=C/c6ccc(O)cc6)C(C)(C)[C@@H]5CC[C@]43C)[C@H]12 inactive

Test call for this compound, please: C/C1=C\C/C=C(\C)[C@H]2CC(CC/C(C)=C/CC1)[C@@](C)(CO)O2 inactive

Would you mind telling me which call this test gave Nc1ccn(C2CC(O)C(CO)O2)c(=O)n1 (stereo unspecified) ? inactive

// outcome(item) with item = Cc1ccc2c(Nc3cccc(Cl)c3F)ncc(NC(=O)c3csc4c(N)ncnc34)c2c1 active

GET /call?item= COc1cccc(-n2ncc3c(N/N=C/c4ccc(S(C)(=O)=O)cc4)ncnc32)c1 returns the recorded outcome of this test. inactive

* * *

Test system: HOP-92 NSCLC
Test: NCI tumour cell line growth inhibition, 48 h
Provide the reported TGI of each item.

Known results for compounds:
compound	TGI
COc1cc(C(=O)C/C(CCC(=O)Nc2ccc(Cl)cc2Cl)=N/NC(=O)C(N)=O)ccc1O	> 100 µM
OCc1ccc2c(c1)CC1(C2)Cc2cc3c(cc2C1)CCC3	> 74 µM
O=C(OCC1OC(OC(=O)c2cc(O)c(O)c(OC(=O)c3cc(O)c(O)c(O)c3)c2)C(OC(=O)c2cc(O)c(O)c(OC(=O)c3cc(O)c(O)c(O)c3)c2)C(OC(=O)c2cc(O)c(O)c(OC(=O)c3cc(O)c(O)c(O)c3)c2)C1OC(=O)c1cc(O)c(O)c(OC(=O)c2cc(O)c(O)c(O)c2)c1)c1cc(O)c(O)c(OC(=O)c2cc(O)c(O)c(O)c2)c1 (stereo not drawn)	> 50 µM
CC(CO)(CO)Nc1ncnc2ccccc12	> 100 µM
COC(=O)n1c(=O)n(-c2ccccc2)c(=O)n1C(=O)Nc1ccccc1	> 100 µM
O=C1Oc2ccccc2C(=O)/C1=C/N1C(=O)N/C(=C\c2cccc(O)c2)C1=O	> 100 µM
COc1c(C)c(C/C=C(\C)CCCCO)c(OC)c(OC)c1OC	> 100 µM
CCOC(=O)CCC(NC(=O)c1ccc(Nc2nc3ccccc3n3cccc23)cc1)C(=O)OCC (stereo not drawn)	> 100 µM

For each of the compounds below, note its TGI.
1. CC(C)C1SCc2nc3ccccc3n21 (stereo not drawn)
2. O=C1OC(C2=CC(=O)c3ccccc3C2=O)C(Cl)=C1Cl (stereo not drawn)
3. CCCc1c(C(=O)OCC)[nH]c(-c2ccc(-c3[nH]c(C(=O)OCC)c(CCC)c3C(=O)OCC)o2)c1C(=O)OCC

1: > 100 µM; 2: > 100 µM; 3: > 100 µM

Please look at the items below and tell me TGI for each one, in order.
1. Cc1cc(S(=O)(=O)NC2=NC(c3ccccc3)c3ccccc3N2)c(S)cc1Cl (stereo not drawn)
2. COc1ccc([C@H]2C=C(c3cc(F)c(Cl)cc3Cl)NC(=S)N2)cc1

> 100 µM
> 100 µM
